test summary: NCI Yeast Anticancer Drug Screen. Data for the bub3 strain (AID 167)
condition parameters: S. cerevisiae bub3 mutant strain, at 50.0 µM (retest, dose inferred, filed as 5.0), hits give high values
Protocol: Growth inhibition of yeast strains with defined genetic alterations is measured as a screen for potential anti-cancer activity. Selected strains with alterations in DNA damage repair or cell cycle control were exposed to compounds and growth inhibition was measured relative to vehicle treated controls. The strain used in this assay is bub3
About 79,000 compounds went through this panel and 15% of them were active in at least one assay; those are over-represented in the sample as a whole.
readout label: growth inhibition (%)
Give your result in % as a bare value.

// solved cases for growth inhibition follow
compound	growth inhibition [%]
CC(C)c1ccccc1OP(=S)(S)Oc1ccccc1C(C)C	54
CC(=O)O[C@H]1CC[C@@]2(C)C(=CC[C@@H]3[C@@H]2CC[C@]2(C)C(=O)[C@@H](CN4CC4)C[C@@H]32)C1	97

(Q) Fill in the blank: the reported growth inhibition of CC[PH+](CC)CC.[Cl][Au] is ____.
(A) 99
